Values compiled from ChEMBL document CHEMBL4296182.

System: Acinetobacter baumannii
Assay: Antibacterial activity against Acinetobacter baumannii ATCC 19606 (CO-ADD:GN_034); MIC in CAMBH media using NBS plates, by Resazurin F(560/590)
Assay type: functional
Conditions: Concentration 20 uM, ASSAY_TEST Inhibition of Bacterial Growth, detection method Resazurin, Fluorescence (ex560/em590), MEDIA CAMHB, plate type 384well, CORNING #3640, time 18 hr
experimentalEndpoint: Inhibition (%)
Field: numeric (%). Do not append units.

Record excerpt, results attached:
* Cc1c([N+](=O)[O-])oc2c1C(=O)NCCC2 | 5.11
* c1ccc(-c2nc(-c3ccccn3)nc(-c3ccccn3)n2)nc1 | 10.22
* CC(C)(C(N)=O)c1ccccc1 | -10.23
* O=[N+]([O-])c1ccc(NN=C(c2ccccc2)c2ccccc2)nc1 | -2.58
* O=C(O)c1ccccc1C(=O)Nc1cccc([N+](=O)[O-])c1 | -9.98

Req: Which value of Inhibition has been reported for N#CC1=CC2CN(Cc3ccccc3)C1C1C(=O)N(c3ccccc3)C(=O)C21 (stereo not given) in the records?
Resp: 3.07

Req: Dear colleague, I am looking for the recorded Inhibition of the following compound: CCOC(=O)Nc1ccc2[nH]c(-c3cscn3)nc2c1
Resp: -19.41

Req: For O=c1[nH]nc(-c2cc(-c3ccccc3)nc3ccccc23)o1 , what is its reported Inhibition?
Resp: -11.03

----------
System: Staphylococcus aureus
Experiment: Antibacterial activity against Staphylococcus aureus MRSA ATCC 43300 (CO-ADD:GP_020); MIC in CAMBH media using NBS plates, by Resazurin F(560/590)
Type: functional
Conditions: Concentration 20 uM, ASSAY_TEST Inhibition of Bacterial Growth, detection method Resazurin, Fluorescence (ex560/em590), MEDIA CAMHB, plate type 384well, CORNING #3640, time 18 hr
experimentalEndpoint: Inhibition (%)
# number only, unit % dropped from output

Here is how some compounds turned out for Inhibition.
- CCCCCC(=O)N1CCCCC1: 5.23
- Oc1ccnc(Nc2ccc(Cl)cc2)n1: 11.15
- O=C(c1ccc(O)cc1)c1ccc(C(=O)c2ccc(O)cc2)cc1: 20.54
- O=C1CCC(NC(=O)c2ccccc2)C(=O)N1 (stereo not drawn): 13.55
- O=C(NC(=S)Nc1cccc(O)c1)c1ccco1: 2.34
- Cc1cc(C)n(C(=N)NC(=O)c2ccccc2)n1: 12.05

Req: // lookup Inhibition for CC1(C)CC2(C)OC2C2(C1)N=N/C(=N/c1ccccc1)O2 (stereo not drawn)
Resp: 27.69

----------
System: Candida albicans
Conditions: 20 µM
Description: Antifungal activity against Candida albicans ATCC 90028 (CO-ADD:FG_001); MIC in YNB media using NBS plates, by OD630
Results with a measured potency or affinity are listed apart.
# Inhibition annotations
Numbers only; they are read as %.

Solved cases (10 shown):
* CCOC(=O)Nc1ccc(C(=O)/C=C/c2ccccc2)cc1 | 6.26
* c1ccc(-c2nc[nH]c2-c2ccccc2)cc1 | -1.64
* CCOc1ccc(S(=O)(=O)c2ccc(C)cc2)c2c1no[n+]2[O-] | 1.5
* COc1cc(C(=O)c2cocc2C(=O)c2ccc3c(c2)OCO3)cc(OC)c1OC | 3.29
* CN(C)Cc1c[nH]c2nccnc12 | 0.19
* C#CCCOC(=O)Nc1ccccc1 | 2.19
* CCOC(=O)C1CC(=O)c2cc(OC)c(OC)cc2C1 (stereo not drawn) | 3.32
* O=C(O)/C=C/C(=O)Nc1cccc2cccnc12 | 8.39
* Cc1cc(NC(=O)Nc2cccc3ccccc23)no1 | 8.31
* CCCCCC(=O)C(=O)c1ccc(O)cc1O | 6.66

Req: Which Inhibition reading was recorded for the compound Clc1nc2nc3n(c2nc1Cl)CCC3 ?
Resp: 3.01

Req: State the recorded Inhibition for this entry: NC(=S)N/N=C/c1cc(-c2cccc(N)c2)ccn1
Resp: 1.87

Req: I am curious: what Inhibition value has been reported for Cc1nc2ccc(Cl)cn2c1[N+](=O)[O-] ?
Resp: 5.38
